- Protocol Description: Solubility of FFC in aqueous Beta-CD/PEG-300 systems
- Assay type: physicochemical
- Condition Context: aqueous beta-cyclodextrin/PEG-300 system, aqueous with cosolvent or surfactant or cyclodextrin, thermodynamic from solid, 10 mM beta/10% PEG-300
Reported Property: solubility (µg/mL)
Answers are plain numbers, in µg/mL.

# solubility (molecule: CS(=O)(=O)c1ccc([C@@H](O)[C@@H](CF)NC(=O)C(Cl)Cl)cc1 (relative stereo) [FFC] ) is 6310

* * *

- Protocol Description: Experimental water solubility of FFC (HPLC solubility study)
- Format: physicochemical
- Condition Context: thermodynamic from solid, Standard 2
Reported Property: solubility (µg/mL)
Give bare numbers, in µg/mL.

CS(=O)(=O)c1ccc([C@@H](O)[C@@H](CF)NC(=O)C(Cl)Cl)cc1 (relative stereo) has a reported solubility of 1900

* * *

- Protocol Description: Solubility of FFC in aqueous Beta-CD/PEG-300 systems
- Type: physicochemical
- Condition Context: aqueous beta-cyclodextrin/PEG-300 system, aqueous with cosolvent or surfactant or cyclodextrin, thermodynamic from solid, 10 mM beta/3% PEG-300
Reported Property: solubility (µg/mL)
Numbers only, in µg/mL.

response.value for CS(=O)(=O)c1ccc([C@@H](O)[C@@H](CF)NC(=O)C(Cl)Cl)cc1 (relative stereo) (field: solubility) = 7510

* * *

- Protocol Description: Experimental water solubility of FFC (HPLC solubility study)
- Assay type: physicochemical
- Condition Context: thermodynamic from solid, Standard 1
Reported Property: solubility
Value and unit, in that order.

Entry CS(=O)(=O)c1ccc([C@@H](O)[C@@H](CF)NC(=O)C(Cl)Cl)cc1 (relative stereo) , solubility reported as 1910 µg/mL

* * *

- Protocol Description: Solubility of FFC in aqueous Beta-CD/PEG-300 systems
- Type: physicochemical
- Condition Context: aqueous beta-cyclodextrin/PEG-300 system, aqueous with cosolvent or surfactant or cyclodextrin, thermodynamic from solid, 50 mM beta/50% PEG-300
Reported Property: solubility (mg/mL)
Numbers only, in mg/mL.

The recorded solubility for CS(=O)(=O)c1ccc([C@@H](O)[C@@H](CF)NC(=O)C(Cl)Cl)cc1 (relative stereo) is 15.5
